Cyclin-dependent kinase 4 (Homo sapiens, UniProt P11802) IC50, compiled from various sources.
API: value field is a number in nM; no unit string.

Ask: Give the measured IC50 for Fc1cnc(Nc2ccc(N3CCNCC3)cn2)nc1-c1cc(F)c2c(c1)NCCO2
Result: 3

Ask: Give the measured IC50 for CCN1CCN(Cc2ccc(Nc3ncc4c(n3)-c3c(cnn3C(C)C)CC4)nc2)CC1
Result: 16

Ask: Give the measured IC50 for CC(C)N1CCOc2c(F)cc(-c3nc(Nc4ccc5[nH]nc(C6CCNCC6)c5c4)ncc3F)cc21
Result: 15

Ask: Give the measured IC50 for CC(C)N1CCOc2c(F)cc(-c3nc(NC4CCN(S(C)(=O)=O)CC4)ncc3F)cc21
Result: 2

Ask: Give the measured IC50 for CC(=O)N1CCN(c2ccc(Nc3cc4c(C5CCCC5)c(C#N)sc4cn3)nc2)CC1
Result: 4.1

Ask: Give the measured IC50 for Cc1nc2c(F)cc(-c3nc(Nc4ccc(Sc5cnc(N6CCC7(CC6)CO[C@@H](C)[C@H]7N)cn5)c(Cl)n4)ncc3F)cc2n1C(C)C
Result: 145

Ask: Give the measured IC50 for CCN1CCN(Cc2ccc(Nc3ncc(F)c(-c4cc(F)c5c(c4)N(C(C)C)CCO5)n3)cc2F)CC1
Result: 3.5

Ask: Give the measured IC50 for CN(C)C(=O)c1cc2cnc(Nc3ccc(Sc4cnc(N5CCC(C)(N)CC5)cn4)cn3)nc2n1C1CCCC1
Result: 9

---

Cyclin-dependent kinase 4 (Homo sapiens, UniProt P11802) IC50, compiled from various sources.

Ask: Please look at Cc1cnc(Nc2cccc(S(C)(=O)=O)c2)nc1-c1cccc2[nH]ccc12 and tell me its recorded IC50 on Cyclin-dependent kinase 4 (Homo sapiens, UniProt P11802).
Result: 5 to 15 µM

Ask: Please look at COc1cnccc1-c1nc(Nc2cccc(S(N)(=O)=O)c2)ncc1C and tell me its recorded IC50 on Cyclin-dependent kinase 4 (Homo sapiens, UniProt P11802).
Result: < 5 µM

Ask: Please look at CC(C)N1CCOc2c(F)cc(-c3nc(Nc4ccc(N5CCN(C)C(=O)C5)cn4)ncc3F)cc21 and tell me its recorded IC50 on Cyclin-dependent kinase 4 (Homo sapiens, UniProt P11802).
Result: 0.001 µM

Ask: Please look at CCCCNC(=O)c1cc2cnc(Nc3ccc(N4CCNCC4)cc3)nc2n1C(CC)CC and tell me its recorded IC50 on Cyclin-dependent kinase 4 (Homo sapiens, UniProt P11802).
Result: < 10 µM

---

Cyclin-dependent kinase 4 (Homo sapiens) IC50, compiled from various sources.
Response field label: string, one of TRUE (IC50 strictly below 30 nM) or FALSE.

Ask: Does this molecule meet the criterion IC50 < 30 nM? CCN1CCN(Cc2ccc(Nc3ncc4c(n3)N(C3CCCC3)C(=O)C3(CCC3)O4)nc2)CC1
Result: TRUE

Ask: Does this molecule meet the criterion IC50 < 30 nM? CC(C)c1c2c(nn1C)CCc1cnc(Nc3ccc(N4CCNCC4)cn3)nc1-2
Result: TRUE

Ask: Does this molecule meet the criterion IC50 < 30 nM? CC(C)N1CCOc2c(F)cc(-c3nc(Nc4ccc(C5CCN(C)CC5)cn4)ncc3F)cc21
Result: TRUE

Ask: Does this molecule meet the criterion IC50 < 30 nM? CC(C)N1CCOc2c(F)cc(-c3nc(Nc4ccc5c(c4)CCC(N(C)C)C5)ncc3F)cc21 (centres unmarked)
Result: TRUE

Ask: Does this molecule meet the criterion IC50 < 30 nM? CC1CN(c2ccc(Nc3ncc(F)c(-c4cc(F)c5c(c4)N(C(C)C)CCO5)n3)nc2)CC(C)O1 (centres unmarked)
Result: FALSE

Ask: Does this molecule meet the criterion IC50 < 30 nM? O=C(c1sc2cnc(Nc3ccc(N4CCNCC4)cn3)cc2c1C1CCCC1)N1CCC1
Result: FALSE

Ask: Does this molecule meet the criterion IC50 < 30 nM? CC(=O)c1nc2cnc(-c3nc(Nc4ccc(CN5CCN(C)CC5)cn4)ncc3F)nc2n1C(C)C
Result: TRUE

Ask: Does this molecule meet the criterion IC50 < 30 nM? CN(C)C(=O)c1sc2cnc(Nc3ccc(N4CCNCC4)cn3)cc2c1C1CCCC1
Result: TRUE

Ask: Does this molecule meet the criterion IC50 < 30 nM? CC(C)N1CCN(c2ccc(Nc3ncc4c(n3)N(C3CCCC3)C(=O)C(C)(C)S4)nc2)CC1
Result: TRUE

Ask: Does this molecule meet the criterion IC50 < 30 nM? Cc1nc2c(n1C1CC1)-c1nc(Nc3ccc(N4CCNCC4)cn3)ncc1C2
Result: FALSE

Ask: Does this molecule meet the criterion IC50 < 30 nM? CC(C)N1CCOc2c(F)cc(-c3nc(Nc4ccc(N5CCS(=O)(=O)CC5)c(F)c4)ncc3F)cc21
Result: FALSE

Ask: Does this molecule meet the criterion IC50 < 30 nM? CCN1CCN(Cc2ccc(Nc3ncc(F)c(-c4ncnc5c4cc(C(C)=O)n5C4CC4)n3)nc2)CC1
Result: TRUE

Ask: Does this molecule meet the criterion IC50 < 30 nM? CC(C)N1CCOc2c(F)cc(-c3nc(Nc4ccc5c(c4)CN(C(=O)CN(C)C)CC5)ncc3F)cc21
Result: TRUE

Ask: Does this molecule meet the criterion IC50 < 30 nM? CCN1CCN(Cc2ccc(Nc3ncc4c(n3)-c3c(nn(CC)c3C(C)C)C(C)(C)C4)nc2)CC1
Result: TRUE

Ask: Does this molecule meet the criterion IC50 < 30 nM? CCC(C)(C)N1C(=O)C(C2CCCCC2)Oc2cnc(Nc3ccc(CN4CCN(C5CC5)CC4)cn3)nc21 (centres unmarked)
Result: TRUE

Ask: Does this molecule meet the criterion IC50 < 30 nM? CN(C)C(=O)c1sc2cnc(Nc3ccc(N4CCNCC4)cn3)cc2c1C1CCC(F)(F)C1 (centres unmarked)
Result: TRUE

Ask: Does this molecule meet the criterion IC50 < 30 nM? CC(C)N1CCOc2c(F)cc(-c3nc(Nc4ccc(C(N)=O)cn4)ncc3F)cc21
Result: TRUE

Ask: Does this molecule meet the criterion IC50 < 30 nM? CCC(C)N1C(=O)C(C2CCCC2)Sc2cnc(Nc3ccc(CN4CCNCC4)cn3)nc21 (centres unmarked)
Result: TRUE

Ask: Does this molecule meet the criterion IC50 < 30 nM? CC(C)N1CCOc2c(F)cc(-c3nc(Nc4ccc(N5CCN(C(=O)CN(C)C)CC5)cc4)ncc3F)cc21
Result: TRUE

---

UniProt:P11802 IC50, compiled from various sources.

Ask: Please look at CCC(=O)N1CCN(c2ccc(Nc3ncc4ccn(C(CC)CC)c4n3)cc2)CC1 and tell me its recorded IC50 on UniProt:P11802.
Result: < 10000 nM

Ask: Please look at CN(C)C(=O)c1cc2cnc(NCc3ccc(N4CCNCC4)cc3)nc2n1C1CCCC1 and tell me its recorded IC50 on UniProt:P11802.
Result: < 10000 nM

Ask: Please look at COC1(c2c(C(=O)N(C)C)sc3cnc(Nc4ccc(N5CCNCC5)cn4)cc23)CCCC1 and tell me its recorded IC50 on UniProt:P11802.
Result: 3.7 nM

Ask: Please look at NS(=O)(=O)c1cccc(Nc2nccc(-c3cccnc3NCCCn3ccnc3)n2)c1 and tell me its recorded IC50 on UniProt:P11802.
Result: 15000 to 50000 nM

Ask: Please look at CC(=O)NCCCNc1ncccc1-c1ccnc(Nc2cccc(C#N)c2)n1 and tell me its recorded IC50 on UniProt:P11802.
Result: 15000 to 50000 nM

Ask: Please look at CN(C)C(=O)c1cc2cc(-c3nc(Nc4ccc(N5CCNCC5)cn4)ncc3F)ccc2n1C1CCCC1 and tell me its recorded IC50 on UniProt:P11802.
Result: ≤ 20 nM

Ask: Please look at CCN1CCN(Cc2ccc(Nc3ncc4c(n3)N(C3CCCC3)C(=O)C(C3CCC3)O4)nc2)CC1 (centres unmarked) and tell me its recorded IC50 on UniProt:P11802.
Result: ≤ 20 nM

Ask: Please look at CC(C)N1CCOc2c(F)cc(-c3nc(Nc4ccc(S(=O)(=O)N5CCN(C)CC5)cc4)ncc3F)cc21 and tell me its recorded IC50 on UniProt:P11802.
Result: 36 nM

Ask: Please look at CC(C)N1CCOc2c(F)cc(-c3nc(Nc4ccc(C(=O)N5CCC(N(C)C)CC5)c(F)c4)ncc3F)cc21 and tell me its recorded IC50 on UniProt:P11802.
Result: 1.5 nM

Ask: Please look at CCCc1nc(Nc2ncc(F)c(-c3cc(F)c4c(c3)N(C(C)C)CCO4)n2)ccc1C1CCN(C)CC1 and tell me its recorded IC50 on UniProt:P11802.
Result: 44 nM

Ask: Please look at CCCN1CCC(c2csc(Nc3ncc(-c4cccc(OC)c4)o3)n2)CC1 and tell me its recorded IC50 on UniProt:P11802.
Result: < 1000 nM

Ask: Please look at CCN(CC)CCNC(=O)c1ccc(Nc2ncc(-c3cccc(OC)c3)o2)cc1 and tell me its recorded IC50 on UniProt:P11802.
Result: < 1000 nM

Ask: Please look at CC(C)N1CCOc2c(F)cc(-c3nc(Nc4ccc(N5CCC(O)CC5)c(F)c4)ncc3F)cc21 and tell me its recorded IC50 on UniProt:P11802.
Result: 31 nM

Ask: Please look at CCC(CC)n1c(CNc2ccon2)cc2cnc(Nc3ccc(N4CCN(C(C)=O)CC4)cc3)nc21 and tell me its recorded IC50 on UniProt:P11802.
Result: < 10000 nM

Ask: Please look at Cc1nc2c(F)cc(-c3nc(Nc4ccc(Sc5cnc(N6CCC(C)(N)CC6)cn5)c(C#N)n4)ncc3F)cc2n1C(C)C and tell me its recorded IC50 on UniProt:P11802.
Result: 31 nM

Ask: Please look at C=C(C)COc1cccc(-c2cnc(Nc3ccc(N4CCN(C)CC4)cc3)o2)c1 and tell me its recorded IC50 on UniProt:P11802.
Result: < 100 nM

Ask: Please look at CCc1nc2c(n1C(C)C)-c1nc(Nc3ccc(N4CCNCC4)cn3)ncc1C2 and tell me its recorded IC50 on UniProt:P11802.
Result: 20 nM

Ask: Please look at CN(C)CC1CCC(n2ccc3cnc(Nc4ccc(N5CCNCC5)cc4)nc32)C1 (centres unmarked) and tell me its recorded IC50 on UniProt:P11802.
Result: < 10000 nM

Ask: Please look at Cc1c2c(nn1C)CCc1cnc(Nc3ccc(N4CCN(C)CC4)cn3)nc1-2 and tell me its recorded IC50 on UniProt:P11802.
Result: 23 nM

Ask: Please look at N#Cc1cccc(Nc2nccc(-c3cccnc3NCCCN)n2)c1 and tell me its recorded IC50 on UniProt:P11802.
Result: < 5000 nM

Ask: Please look at CCN1CCN(Cc2ccc(Nc3ncc(F)c(-c4ccc5c(c4)cc(C(=O)N(C)C)n5C4CCCC4)n3)nc2)CC1 and tell me its recorded IC50 on UniProt:P11802.
Result: ≤ 20 nM

Ask: Please look at CN(C)C(=O)c1cc2cnc(Nc3ccc(Sc4cnc(N5CCC6(CC5)Cc5ccccc5[C@H]6N)cn4)c(Cl)n3)nc2n1C1CCCC1 and tell me its recorded IC50 on UniProt:P11802.
Result: 538 nM

Ask: Please look at CCC(C(N)=O)n1ccc2cnc(Nc3ccc(N4CCN(C(C)=O)CC4)cc3)nc21 (centres unmarked) and tell me its recorded IC50 on UniProt:P11802.
Result: < 10000 nM

Ask: Please look at CN1CCN(c2ccc(Nc3ncc(-c4cccc(OC5CCCCC5)c4)o3)cc2)CC1 and tell me its recorded IC50 on UniProt:P11802.
Result: < 100 nM

Ask: Please look at O=C1N(C2CCCC2)c2nc(Nc3ccc(N4CCNCC4)cn3)ncc2OC12CCC2 and tell me its recorded IC50 on UniProt:P11802.
Result: ≤ 20 nM

Ask: Please look at COc1cccc(-c2cnc(Nc3ccc(N4CCOCC4)cc3)o2)c1 and tell me its recorded IC50 on UniProt:P11802.
Result: < 1000 nM

Ask: Please look at O=C(N1CC2COCC2C1)N1OC1c1ccccc1 (centres unmarked) and tell me its recorded IC50 on UniProt:P11802.
Result: ~200 nM

Ask: Please look at O=C1N(C2CCCC2)c2nc(Nc3ccc(N4CCNCC4)cn3)ncc2OC1(F)F and tell me its recorded IC50 on UniProt:P11802.
Result: ≤ 20 nM

Ask: Please look at CC(C)N1CCOc2c(F)cc(-c3nc(Nc4nc5cc(C6=CCNCC6)ccc5s4)ncc3F)cc21 and tell me its recorded IC50 on UniProt:P11802.
Result: > 190 nM

Ask: Please look at CCC(C(=O)OC)n1ccc2cnc(Nc3ccc(N4CCN(C(C)=O)CC4)cc3)nc21 (centres unmarked) and tell me its recorded IC50 on UniProt:P11802.
Result: < 10000 nM

Ask: Please look at CC(=O)NCCCNc1ncccc1-c1ccnc(Nc2cccc(S(N)(=O)=O)c2)n1 and tell me its recorded IC50 on UniProt:P11802.
Result: 15000 to 50000 nM

Ask: Please look at CCN1CCN(c2ccc(Nc3ncc4c(n3)-c3c(nn(C)c3C(C)C)C4)nc2)CC1 and tell me its recorded IC50 on UniProt:P11802.
Result: 6 nM
